Overview of reported IC50 across a group of compounds:
- test method notes: Inhibition of Hepatitis C virus full-length NS3/4A protease assessed as quenched-fluorogenic RET-S1 substrate cleavage incubated for 10 mins prior to substrate addition by FRET analysis
- Parameters: species or system Hepacivirus hominis
Write the answer as a number in nM, unit excluded.

structure_smiles=CC(C)(C)OC(=O)N[C@H]1CCCCC/C=C\[C@@H]2C[C@@]2(C(=O)NS(=O)(=O)C2CC2)NC(=O)[C@@H]2C[C@@H](OC(=O)N3Cc4cccc(Br)c4C3)CN2C1=O unit_abbreviation=nM reported=1.1
structure_smiles=O=C(NC1CCCC1)N[C@H]1CCCCC/C=C\[C@@H]2C[C@@]2(C(=O)NS(=O)(=O)C2CC2)NC(=O)[C@@H]2C[C@@H](OC(=O)N3Cc4ccccc4C3)CN2C1=O unit_abbreviation=nM reported=0.7

Continue with the next compound.
QUERY: Entry under review: CC(C)N(C(C)C)S(=O)(=O)NC(=O)[C@@]12C[C@H]1/C=C\CCCCC[C@H](NC(=O)OC(C)(C)C)C(=O)N1C[C@H](OC(=O)N3Cc4ccccc4C3)C[C@H]1C(=O)N2 . Reported IC50?
RESULT: 70
